# key: entry, value: IC50
tested.target: bakers yeast a-glucosidase (Saccharomyces cerevisiae, UniProt P53341)
Construct: purchased Sigma-Aldrich
Sequence (P53341 whole entry): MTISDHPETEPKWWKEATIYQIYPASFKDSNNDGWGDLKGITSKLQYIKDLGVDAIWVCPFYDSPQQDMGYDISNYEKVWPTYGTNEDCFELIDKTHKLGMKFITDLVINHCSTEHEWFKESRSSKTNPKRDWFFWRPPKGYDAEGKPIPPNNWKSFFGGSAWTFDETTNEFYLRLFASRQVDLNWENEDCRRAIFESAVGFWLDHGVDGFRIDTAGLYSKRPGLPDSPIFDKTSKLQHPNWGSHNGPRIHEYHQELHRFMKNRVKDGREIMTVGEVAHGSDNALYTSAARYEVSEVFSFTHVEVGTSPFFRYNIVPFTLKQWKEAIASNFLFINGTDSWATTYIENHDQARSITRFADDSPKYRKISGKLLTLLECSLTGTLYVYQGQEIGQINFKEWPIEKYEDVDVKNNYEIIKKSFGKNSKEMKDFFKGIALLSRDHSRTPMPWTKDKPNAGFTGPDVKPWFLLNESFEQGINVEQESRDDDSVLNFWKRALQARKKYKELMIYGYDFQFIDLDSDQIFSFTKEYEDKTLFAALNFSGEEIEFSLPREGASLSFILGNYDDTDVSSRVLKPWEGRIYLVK
assay.protocol: In vitro flavonoid inhibition of alpha-glucosidase (pNPG)
Type: biochemical
Quote the value and follow it with the unit of measurement.

Observe how each entry below is paired with its result.
[
  {
    "compound": "O=C1c2c(O)cc(O)cc2O[C@H](c2cc(O)c(O)c(O)c2)[C@H]1O [Dihydromyricetin]",
    "readout.value": "4 µM"
  },
  {
    "compound": "O=c1cc(-c2ccccc2)oc2cc(O)c(O)c(O)c12",
    "readout.value": "58 µM"
  },
  {
    "compound": "O=c1cc(-c2ccc(O)cc2)oc2cc(O)cc(O)c12",
    "readout.value": "90 µM"
  }
]

Recorded result, O=c1c(O)c(-c2cc(O)c(O)c(O)c2)oc2cc(O)cc(O)c12 , IC50: 3.6 µM

====

tested.target: bakers yeast a-glucosidase (Saccharomyces cerevisiae)
Construct: purchased Sigma-Aldrich
assay.protocol: In vitro flavonoid inhibition of alpha-glucosidase (pNPG)
Format: biochemical
measurement.setup: pNPG 2.9 mM, pH 6.9, 25° C., 5 min; read-out: IC50, inhibition of yeast alpha-glucosidase
property: IC50 (µM)
Provide only the numeric value, understood in µM.

[
  {
    "compound": "O=c1cc(-c2ccc(O)c(O)c2)oc2cc(O)cc(O)c12 [Luteolin]",
    "tested.target": "bakers yeast a-glucosidase (Saccharomyces cerevisiae)",
    "readout.value": 35
  }
]

# IC50 measured on bakers yeast a-glucosidase (Saccharomyces cerevisiae) for item O=C(CCc1ccc(O)cc1)c1c(O)cc(O)cc1O [Phloretin] = 96
